# TEST DETAILS: Selectivity index, ratio of CC50 for human RD cells to IC50 for EV71 infected in human RD cells
# Format: toxicity, cell-based
# COND: read-out: Ratio CC50/IC50
Quick rule for you: selectivity ratio under 2 gets MET, anything else gets NOT MET.

>>> print(df.to_string())
                             chemical_string      cat
 0  O=C(c1ccc(C(F)(F)F)cc1O)c1[nH]c(Cl)c(Cl)c1-n1c(C(=O)c2ccc(C(F)(F)F)cc2O)cc(Cl)c1Sc1cccs1  NOT MET
 1  O=C(c1ccc(C(F)(F)F)cc1O)c1[nH]c(Cl)c(Cl)c1-n1c(C(=O)c2ccc(C(F)(F)F)cc2O)cc(Cl)c1SCCO  NOT MET
 2  O=C(c1ccc(C(F)(F)F)cc1O)c1[nH]c(Cl)c(Cl)c1-n1c(C(=O)c2ccc(C(F)(F)F)cc2O)cc(Cl)c1SCc1ncccn1  NOT MET
 3  CN(C)CCn1nnnc1Sc1c(Cl)cc(C(=O)c2ccc(C(F)(F)F)cc2O)n1-c1c(C(=O)c2ccc(C(F)(F)F)cc2O)[nH]c(Cl)c1Cl      MET
 4  O=C(c1ccc(C(F)(F)F)cc1O)c1[nH]c(Cl)c(Cl)c1-n1c(C(=O)c2ccc(C(F)(F)F)cc2O)cc(Cl)c1SCc1cccnc1  NOT MET
 5  O=C(c1ccc(C(F)(F)F)cc1O)c1[nH]c(Cl)c(Cl)c1-n1c(C(=O)c2ccc(C(F)(F)F)cc2O)cc(Cl)c1Sc1nc2ccccc2o1  NOT MET
 6  C#C[C@@]1(O)[C@H](O)[C@@H](CO)O[C@H]1n1ccc2c(N)ncnc21  NOT MET
 7  O=C(c1ccc(C(F)(F)F)cc1O)c1[nH]c(Cl)c(Cl)c1-n1c(C(=O)c2ccc(C(F)(F)F)cc2O)cc(Cl)c1Sc1ncccn1  NOT MET
 8  O=C(c1ccc(C(F)(F)F)cc1O)c1[nH]c(Cl)c(Cl)c1-n1c(C(=O)c2ccc(C(F)(F)F)cc2O)cc(Cl)c1SCCc1ccccn1  NOT MET
 9  O=C(c1ccc(C(F)(F)F)cc1O)c1[nH]c(Cl)c(Cl)c1-n1c(C(=O)c2ccc(C(F)(F)F)cc2O)cc(Cl)c1Sc1nnnn1CCO  NOT MET
10  O=C(c1ccc(C(F)(F)F)cc1O)c1[nH]c(Cl)c(Cl)c1-n1c(C(=O)c2ccc(C(F)(F)F)cc2O)cc(Cl)c1SCc1ccccn1      MET

----------
# TEST DETAILS: Cytotoxicity against […] infected with YFV-17D incubated for 7 days by CellTiter 96 luminescent cell viability assay
# Type: toxicity, cell-based
# COND: time 7 day
Quick rule for you: CC50 at 168 h under 10 µM gets MET, anything else gets NOT MET.

>>> print(df.to_string())
                            chemical_string      cat
0  O=C(c1ccc(C(F)(F)F)cc1O)c1[nH]c(Cl)c(Cl)c1-n1c(C(=O)c2ccc(C(F)(F)F)cc2O)cc(Cl)c1SCCO      MET
1  O=C(c1ccc(C(F)(F)F)cc1O)c1[nH]c(Cl)c(Cl)c1-n1c(C(=O)c2ccc(C(F)(F)F)cc2O)cc(Cl)c1SCCCO      MET
2  Cc1nnc(Sc2c(Cl)cc(C(=O)c3ccc(C(F)(F)F)cc3O)n2-c2c(C(=O)c3ccc(C(F)(F)F)cc3O)[nH]c(Cl)c2Cl)s1      MET
3  O=C(c1ccc(C(F)(F)F)cc1O)c1[nH]c(Cl)c(Cl)c1-n1c(C(=O)c2ccc(C(F)(F)F)cc2O)cc(Cl)c1Sc1nnnn1CCO  NOT MET
4  O=C(c1ccc(C(F)(F)F)cc1O)c1[nH]c(Cl)c(Cl)c1-n1c(C(=O)c2ccc(C(F)(F)F)cc2O)cc(Cl)c1Sc1nc[nH]n1  NOT MET
5  O=C(c1ccc(C(F)(F)F)cc1O)c1[nH]c(Cl)c(Cl)c1-n1c(C(=O)c2ccc(C(F)(F)F)cc2O)cc(Cl)c1Sc1nc2ccccc2[nH]1  NOT MET
6  Cn1nnnc1Sc1c(Cl)cc(C(=O)c2ccc(C(F)(F)F)cc2O)n1-c1c(C(=O)c2ccc(C(F)(F)F)cc2O)[nH]c(Cl)c1Cl      MET

----------
# TEST DETAILS: Cytotoxicity against […] infected with DENV-NGC-1 incubated for 7 days by CellTiter 96 luminescent cell viability assay
# Format: toxicity, cell-based
# COND: time 7 day
Ranges used to classify CC50 at 168 h: lower range = under 1000 nM, middle range = from 1000 nM up to 3000 nM, upper range = 3000 nM and over

In [3]: df
Out[3]:
                             chemical_string           cat
 0  Cc1nnc(Sc2c(Cl)cc(C(=O)c3ccc(C(F)(F)F)cc3O)n2-c2c(C(=O)c3ccc(C(F)(F)F)cc3O)[nH]c(Cl)c2Cl)s1   lower range
 1  O=C(c1ccc(C(F)(F)F)cc1O)c1[nH]c(Cl)c(Cl)c1-n1c(C(=O)c2ccc(C(F)(F)F)cc2O)cc(Cl)c1Sc1nc2ccccc2s1   lower range
 2  C#C[C@@]1(O)[C@H](O)[C@@H](CO)O[C@H]1n1ccc2c(N)ncnc21   upper range
 3  CN(C)CCn1nnnc1Sc1c(Cl)cc(C(=O)c2ccc(C(F)(F)F)cc2O)n1-c1c(C(=O)c2ccc(C(F)(F)F)cc2O)[nH]c(Cl)c1Cl  middle range
 4  O=C(c1ccc(C(F)(F)F)cc1O)c1[nH]c(Cl)c(Cl)c1-n1c(C(=O)c2ccc(C(F)(F)F)cc2O)cc(Cl)c1Sc1ncc[nH]1   upper range
 5  O=C(c1ccc(C(F)(F)F)cc1O)c1[nH]c(Cl)c(Cl)c1-n1c(C(=O)c2ccc(C(F)(F)F)cc2O)cc(Cl)c1SCCO   lower range
 6  O=C(c1ccc(C(F)(F)F)cc1O)c1[nH]c(Cl)c(Cl)c1-n1c(C(=O)c2ccc(C(F)(F)F)cc2O)cc(Cl)c1Sc1cccc[n+]1[O-]   upper range
 7  O=C(c1ccc(C(F)(F)F)cc1O)c1[nH]c(Cl)c(Cl)c1-n1c(C(=O)c2ccc(C(F)(F)F)cc2O)cc(Cl)c1Sc1nc2ccccc2o1  middle range
 8  O=C(c1ccc(C(F)(F)F)cc1O)c1[nH]c(Cl)c(Cl)c1-n1c(C(=O)c2ccc(C(F)(F)F)cc2O)cc(Cl)c1SCCCO  middle range
 9  O=C(c1ccc(C(F)(F)F)cc1O)c1[nH]c(Cl)c(Cl)c1-n1c(C(=O)c2ccc(C(F)(F)F)cc2O)cc(Cl)c1Sc1cnccn1  middle range
10  O=C(c1ccc(C(F)(F)F)cc1O)c1[nH]c(Cl)c(Cl)c1-n1c(C(=O)c2ccc(C(F)(F)F)cc2O)cc(Cl)c1Sc1nc2ccccc2[nH]1   upper range
11  O=C(c1ccc(C(F)(F)F)cc1O)c1[nH]c(Cl)c(Cl)c1-n1c(C(=O)c2ccc(C(F)(F)F)cc2O)cc(Cl)c1Sc1nc2cccnc2[nH]1   upper range
12  O=C(c1ccc(C(F)(F)F)cc1O)c1[nH]c(Cl)c(Cl)c1-n1c(C(=O)c2ccc(C(F)(F)F)cc2O)cc(Cl)c1SCc1cccnc1   lower range
13  Cn1nnnc1Sc1c(Cl)cc(C(=O)c2ccc(C(F)(F)F)cc2O)n1-c1c(C(=O)c2ccc(C(F)(F)F)cc2O)[nH]c(Cl)c1Cl   upper range

----------
# TEST DETAILS: Selectivity index, ratio of CC50 for human RD cells to IC50 for CA6 infected in human RD cells
# Type: toxicity, cell-based
# COND: read-out: Ratio CC50/IC50
Quick rule for you: selectivity ratio under 3 gets 1, anything else gets -1.

>>> print(df.to_string())
                            chemical_string  cat
0  O=C(c1ccc(C(F)(F)F)cc1O)c1[nH]c(Cl)c(Cl)c1-n1c(C(=O)c2ccc(C(F)(F)F)cc2O)cc(Cl)c1Sc1cccs1   -1
1  O=C(c1ccc(C(F)(F)F)cc1O)c1[nH]c(Cl)c(Cl)c1-n1c(C(=O)c2ccc(C(F)(F)F)cc2O)cc(Cl)c1Sc1nc2ccccc2o1   -1
2  Cn1nnnc1Sc1c(Cl)cc(C(=O)c2ccc(C(F)(F)F)cc2O)n1-c1c(C(=O)c2ccc(C(F)(F)F)cc2O)[nH]c(Cl)c1Cl    1
3  O=C(c1ccc(C(F)(F)F)cc1O)c1[nH]c(Cl)c(Cl)c1-n1c(C(=O)c2ccc(C(F)(F)F)cc2O)cc(Cl)c1Sc1ccccn1    1
4  O=C(c1ccc(C(F)(F)F)cc1O)c1[nH]c(Cl)c(Cl)c1-n1c(C(=O)c2ccc(C(F)(F)F)cc2O)cc(Cl)c1Sc1ncccn1    1
5  O=C(c1ccc(C(F)(F)F)cc1O)c1[nH]c(Cl)c(Cl)c1-n1c(C(=O)c2ccc(C(F)(F)F)cc2O)cc(Cl)c1SCc1ccccn1    1
6  O=C(c1ccc(C(F)(F)F)cc1O)c1[nH]c(Cl)c(Cl)c1-n1c(C(=O)c2ccc(C(F)(F)F)cc2O)cc(Cl)c1SCCCO   -1
7  C#C[C@@]1(O)[C@H](O)[C@@H](CO)O[C@H]1n1ccc2c(N)ncnc21   -1
